biological target: DNA-dependent protein kinase catalytic subunit (Homo sapiens, UniProt P78527); test: Inhibition of DNA dependent protein kinase isolated from HeLa cells
Sequence (P78527 whole entry): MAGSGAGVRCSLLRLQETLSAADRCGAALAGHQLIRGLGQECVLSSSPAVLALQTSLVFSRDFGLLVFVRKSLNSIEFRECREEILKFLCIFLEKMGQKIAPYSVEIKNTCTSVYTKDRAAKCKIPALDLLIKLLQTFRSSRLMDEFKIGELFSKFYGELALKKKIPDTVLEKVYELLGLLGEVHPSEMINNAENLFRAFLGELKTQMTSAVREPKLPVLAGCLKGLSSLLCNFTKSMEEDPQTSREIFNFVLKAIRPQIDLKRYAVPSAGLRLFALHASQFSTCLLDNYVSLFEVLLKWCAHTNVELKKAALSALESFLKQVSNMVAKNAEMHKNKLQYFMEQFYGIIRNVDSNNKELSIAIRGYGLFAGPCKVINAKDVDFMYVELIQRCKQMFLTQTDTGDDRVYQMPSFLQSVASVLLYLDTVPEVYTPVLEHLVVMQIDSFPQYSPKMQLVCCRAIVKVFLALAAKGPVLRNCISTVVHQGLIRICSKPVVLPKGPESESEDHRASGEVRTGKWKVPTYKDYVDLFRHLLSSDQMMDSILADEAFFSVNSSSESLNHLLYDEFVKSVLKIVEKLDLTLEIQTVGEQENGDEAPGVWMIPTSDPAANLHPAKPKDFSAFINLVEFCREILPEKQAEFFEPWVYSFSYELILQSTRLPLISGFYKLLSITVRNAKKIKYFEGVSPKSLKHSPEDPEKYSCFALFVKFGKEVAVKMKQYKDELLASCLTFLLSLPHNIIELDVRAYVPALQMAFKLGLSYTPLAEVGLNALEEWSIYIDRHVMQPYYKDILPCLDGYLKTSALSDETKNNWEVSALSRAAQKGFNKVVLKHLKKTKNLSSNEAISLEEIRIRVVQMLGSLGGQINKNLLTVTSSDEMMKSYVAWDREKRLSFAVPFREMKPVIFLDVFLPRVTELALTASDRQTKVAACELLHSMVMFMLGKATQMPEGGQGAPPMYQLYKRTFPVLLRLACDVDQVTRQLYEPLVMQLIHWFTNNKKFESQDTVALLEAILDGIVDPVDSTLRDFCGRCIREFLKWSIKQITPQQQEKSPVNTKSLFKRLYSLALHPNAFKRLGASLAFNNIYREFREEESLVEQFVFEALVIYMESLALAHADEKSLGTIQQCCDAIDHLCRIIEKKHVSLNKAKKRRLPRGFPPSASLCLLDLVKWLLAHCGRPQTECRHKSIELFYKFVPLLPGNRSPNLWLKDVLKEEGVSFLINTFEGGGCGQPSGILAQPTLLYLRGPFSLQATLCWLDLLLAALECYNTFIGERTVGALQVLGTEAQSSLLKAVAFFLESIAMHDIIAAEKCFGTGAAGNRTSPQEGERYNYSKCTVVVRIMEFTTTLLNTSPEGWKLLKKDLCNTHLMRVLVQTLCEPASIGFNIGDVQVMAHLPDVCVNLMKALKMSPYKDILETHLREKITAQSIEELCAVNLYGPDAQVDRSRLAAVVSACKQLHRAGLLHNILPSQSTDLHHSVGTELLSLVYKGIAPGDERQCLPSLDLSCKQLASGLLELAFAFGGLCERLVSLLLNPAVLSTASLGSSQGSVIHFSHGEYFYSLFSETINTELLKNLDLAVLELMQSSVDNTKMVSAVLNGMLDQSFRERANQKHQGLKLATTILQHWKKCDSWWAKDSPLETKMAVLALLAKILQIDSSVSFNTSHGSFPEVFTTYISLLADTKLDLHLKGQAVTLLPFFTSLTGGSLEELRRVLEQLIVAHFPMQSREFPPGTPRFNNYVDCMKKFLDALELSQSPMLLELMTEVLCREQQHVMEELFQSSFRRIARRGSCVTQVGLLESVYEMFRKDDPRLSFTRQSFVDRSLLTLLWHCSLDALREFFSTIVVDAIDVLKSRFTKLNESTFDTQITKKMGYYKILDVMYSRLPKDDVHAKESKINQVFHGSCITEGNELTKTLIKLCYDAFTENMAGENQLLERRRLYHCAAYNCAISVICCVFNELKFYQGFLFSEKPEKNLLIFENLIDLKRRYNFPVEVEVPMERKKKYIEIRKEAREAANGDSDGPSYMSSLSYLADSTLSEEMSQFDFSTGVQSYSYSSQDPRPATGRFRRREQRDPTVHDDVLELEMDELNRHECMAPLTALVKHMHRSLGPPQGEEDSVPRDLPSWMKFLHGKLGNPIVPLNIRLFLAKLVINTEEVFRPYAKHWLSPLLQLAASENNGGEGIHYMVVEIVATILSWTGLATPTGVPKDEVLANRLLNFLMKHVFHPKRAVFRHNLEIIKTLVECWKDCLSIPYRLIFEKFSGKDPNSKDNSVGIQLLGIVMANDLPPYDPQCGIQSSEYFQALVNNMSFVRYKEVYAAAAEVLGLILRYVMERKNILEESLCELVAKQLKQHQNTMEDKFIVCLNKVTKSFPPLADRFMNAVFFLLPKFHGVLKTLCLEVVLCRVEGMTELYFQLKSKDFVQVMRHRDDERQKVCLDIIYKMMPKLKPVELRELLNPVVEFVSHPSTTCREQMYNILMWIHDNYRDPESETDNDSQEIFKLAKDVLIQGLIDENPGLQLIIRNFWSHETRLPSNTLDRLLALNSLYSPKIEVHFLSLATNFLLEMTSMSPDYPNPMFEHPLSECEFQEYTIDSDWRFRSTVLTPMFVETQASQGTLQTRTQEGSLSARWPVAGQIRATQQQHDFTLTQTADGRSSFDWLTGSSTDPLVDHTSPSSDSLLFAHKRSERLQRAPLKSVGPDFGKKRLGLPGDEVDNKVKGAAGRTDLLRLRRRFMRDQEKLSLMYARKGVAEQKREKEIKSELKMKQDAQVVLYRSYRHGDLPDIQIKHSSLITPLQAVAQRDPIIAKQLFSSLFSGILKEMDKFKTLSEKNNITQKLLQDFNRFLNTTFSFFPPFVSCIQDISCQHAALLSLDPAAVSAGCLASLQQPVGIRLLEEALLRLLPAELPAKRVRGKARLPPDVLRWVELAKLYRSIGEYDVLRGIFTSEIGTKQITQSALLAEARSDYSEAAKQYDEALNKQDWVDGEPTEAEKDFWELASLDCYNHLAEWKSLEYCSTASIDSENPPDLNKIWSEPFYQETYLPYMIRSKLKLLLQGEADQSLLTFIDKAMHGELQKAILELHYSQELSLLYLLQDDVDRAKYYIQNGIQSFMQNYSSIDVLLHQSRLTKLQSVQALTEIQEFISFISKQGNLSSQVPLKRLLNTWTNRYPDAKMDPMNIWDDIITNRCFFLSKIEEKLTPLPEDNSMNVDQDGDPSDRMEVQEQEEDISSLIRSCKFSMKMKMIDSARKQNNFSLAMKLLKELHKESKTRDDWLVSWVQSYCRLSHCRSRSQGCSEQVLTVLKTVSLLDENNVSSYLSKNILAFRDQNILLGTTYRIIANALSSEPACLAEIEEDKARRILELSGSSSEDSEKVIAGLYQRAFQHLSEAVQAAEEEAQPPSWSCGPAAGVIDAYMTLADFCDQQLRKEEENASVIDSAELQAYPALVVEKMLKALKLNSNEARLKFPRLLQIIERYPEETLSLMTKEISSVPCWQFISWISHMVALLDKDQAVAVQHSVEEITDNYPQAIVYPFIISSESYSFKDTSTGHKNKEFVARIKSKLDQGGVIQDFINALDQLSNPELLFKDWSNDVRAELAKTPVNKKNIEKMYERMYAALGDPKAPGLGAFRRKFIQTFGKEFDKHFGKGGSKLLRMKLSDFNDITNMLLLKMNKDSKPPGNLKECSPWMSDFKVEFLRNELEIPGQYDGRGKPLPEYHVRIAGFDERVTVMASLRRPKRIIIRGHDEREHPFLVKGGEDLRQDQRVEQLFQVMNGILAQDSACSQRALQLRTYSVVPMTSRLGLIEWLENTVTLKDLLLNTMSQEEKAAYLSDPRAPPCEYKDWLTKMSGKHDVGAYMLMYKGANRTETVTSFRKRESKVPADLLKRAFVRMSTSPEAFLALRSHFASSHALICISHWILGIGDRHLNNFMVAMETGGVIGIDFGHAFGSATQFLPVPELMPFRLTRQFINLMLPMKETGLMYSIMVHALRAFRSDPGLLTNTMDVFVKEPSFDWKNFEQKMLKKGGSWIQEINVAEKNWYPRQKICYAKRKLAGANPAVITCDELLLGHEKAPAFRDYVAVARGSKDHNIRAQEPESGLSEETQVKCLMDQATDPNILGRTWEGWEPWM
pIC50: −log10 of the molar value.
measurement_name: pIC50

Below, each entry is followed by its recorded pIC50 result.
compound: S=c1cc(N2CCOCC2)oc2c1ccc1ccccc12
measurement_name: pIC50
number: 6.59

compound: CN(CC(O)c1ccccc1)c1cc(=O)n2ccc3ccccc3c2n1 (stereo unspecified)
measurement_name: pIC50
number: 4.98

P = CC1(C)CN(c2cc(=O)n3ccc4ccccc4c3n2)CCO1
Q = CC1(C)CN(c2cc(=O)c3ccc4ccccc4c3o2)CCO1
## Task Given P and given Q , which shows the smaller recorded pIC50? Give the chosen item's label as your response.
## Result P
(P: 5.17, Q: 5.45)
